- studySystem: human recombinant GCL (Homo sapiens (Human))
- Sequence (P48506 whole entry): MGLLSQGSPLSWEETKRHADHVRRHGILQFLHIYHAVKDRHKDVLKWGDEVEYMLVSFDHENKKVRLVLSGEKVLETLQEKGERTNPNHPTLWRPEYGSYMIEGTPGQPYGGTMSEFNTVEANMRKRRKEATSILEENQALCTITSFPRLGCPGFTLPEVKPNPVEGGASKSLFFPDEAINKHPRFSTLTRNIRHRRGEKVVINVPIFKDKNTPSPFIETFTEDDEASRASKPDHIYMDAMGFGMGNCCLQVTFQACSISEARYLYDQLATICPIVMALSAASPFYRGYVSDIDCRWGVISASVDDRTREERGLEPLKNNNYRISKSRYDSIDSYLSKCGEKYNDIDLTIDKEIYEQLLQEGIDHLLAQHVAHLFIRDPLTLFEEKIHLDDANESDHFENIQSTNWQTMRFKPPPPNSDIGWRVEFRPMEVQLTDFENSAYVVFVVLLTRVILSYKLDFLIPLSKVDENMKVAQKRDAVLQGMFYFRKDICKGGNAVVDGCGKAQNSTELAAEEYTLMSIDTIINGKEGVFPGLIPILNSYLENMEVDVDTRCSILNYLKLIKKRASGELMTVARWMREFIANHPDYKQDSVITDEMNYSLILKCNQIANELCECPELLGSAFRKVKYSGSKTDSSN
- protocolDetails: GCL enzyme profiling assay (ADP-Glo luminescence)
- Assay type: biochemical
- particulars: human recombinant GCL 5 nM, 1 h preincubation with ATP; read-out: GCL IC50
pIC50: −log10 of the molar value.
pIC50 overview

>  <molecule>
CC(C)(C)CCS(=N)(=O)CC[C@H](N)C(=O)N1CCCC1 (stereo partly shown)

>  <pIC50>
< 2.70

$$$$
>  <molecule>
CC(C)(C)CCS(=N)(=O)CC[C@H](N)C(=O)NCCC(C)(C)O (stereo partly shown)

>  <pIC50>
< 2.70

$$$$
>  <molecule>
N=S(=O)(CCCC(F)(F)F)CC[C@H](N)C(=O)OCc1ccccc1 (stereo partly shown)

>  <pIC50>
2.70 to 4.70

$$$$
>  <molecule>
N=[S@@](=O)(CC[C@H](N)C(=O)O)CC[C@@H](c1ccccc1)C(F)(F)F

>  <pIC50>
≥ 4.70

$$$$
>  <molecule>
COC(C)(C)CCS(=N)(=O)CC[C@H](N)C(=O)O (stereo partly shown)

>  <pIC50>
2.70 to 4.70

$$$$
>  <molecule>
CC(C)(C)CC[S@](=N)(=O)CC[C@H](N)C(=O)Nc1cccnc1 (single isomer, unassigned)

>  <pIC50>
< 2.70

$$$$
>  <molecule>
COC(=O)[C@@H](N)CCS(=N)(=O)CCC1CCCC1 (stereo partly shown)

>  <pIC50>
2.70 to 4.70

$$$$
>  <molecule>
N=S(=O)(CCc1ccccc1C(F)(F)F)CC[C@H](N)C(=O)O (stereo partly shown)

>  <pIC50>
≥ 4.70

$$$$
>  <molecule>
CCCCOC(=O)[C@@H](N)CCS(=N)(=O)CCc1ccccc1C(F)(F)F (stereo partly shown)

>  <pIC50>
2.70 to 4.70

$$$$
>  <molecule>
CCCCS(=N)(=O)CC[C@H](N)C(=O)NS(C)(=O)=O (stereo partly shown)

>  <pIC50>
2.70 to 4.70

$$$$
>  <molecule>
CC(C)(CCS(=N)(=O)CC[C@H](N)C(=O)O)n1cc(-c2ccccc2)nn1 (stereo partly shown)

>  <pIC50>
2.70 to 4.70

$$$$
>  <molecule>
CC1(CCS(=N)(=O)CC[C@H](N)C(=O)O)COC1 (stereo partly shown)

>  <pIC50>
2.70 to 4.70

$$$$
>  <molecule>
COC(CC[S@](=N)(=O)CC[C@H](N)C(=O)O)C(F)(F)F (stereo partly shown) [Compound 178]

>  <pIC50>
≥ 4.70

$$$$
>  <molecule>
N=S(=O)(CC[C@H](N)C(=O)O)CCC1(F)CCC1 (stereo partly shown)

>  <pIC50>
2.70 to 4.70

$$$$
>  <molecule>
CCCCS(=N)(=O)CC[C@H](N)C(=O)NCC(N)=O (stereo partly shown)

>  <pIC50>
2.70 to 4.70

$$$$
>  <molecule>
N=S(=O)(CC[C@H](N)C(=O)O)CCC1(CO)CCC1 (stereo partly shown)

>  <pIC50>
2.70 to 4.70

$$$$
>  <molecule>
N=S(=O)(CCC1COC1)CC[C@H](N)C(=O)O (stereo partly shown)

>  <pIC50>
2.70 to 4.70

$$$$
>  <molecule>
N=S(=O)(CC[C@H](N)C(=O)O)CCC1(C(=O)Nc2ccccc2)CCC1 (stereo partly shown)

>  <pIC50>
2.70 to 4.70

$$$$
>  <molecule>
N=S(=O)(CC[C@H](N)C(=O)O)Cc1ccccc1 (stereo partly shown)

>  <pIC50>
< 2.70

$$$$
